# measurementTarget: HLA-B*35:01
# protocolText: IEDB peptide-MHC binding, purified MHC/competitive/radioactivity; filed as Kd, often an IC50 or EC50 that approximates it; bounds were set here for any values at or beyond the usual limits of such assays
# setupConditions: source organism: Triticum aestivum
pKd: −log10 of the molar value.
quantityName: pKd

PPYCTIAPV :: ≤ 4.67

Next:
The reported pKd value, HLA-B*35:01, for `QPQEQVPL` reads ≤ 4.06

---

// reported Kd for each item listed
# measurementTarget: HLA-A*31:01
# protocolText: IEDB peptide-MHC binding, purified MHC/competitive/radioactivity; filed as Kd, often an IC50 or EC50 that approximates it; bounds were set here for any values at or beyond the usual limits of such assays
# setupConditions: source organism: Mammarenavirus whitewaterense

VCFWSTLFY :: ≥ 77.9 µM

Next:
Notebook: `PMPCMINDTH` , Kd read as ≥ 70 µM

---

# measurementTarget: HLA-A*31:01
# protocolText: IEDB peptide-MHC binding, purified MHC/competitive/radioactivity; filed as Kd, often an IC50 or EC50 that approximates it; bounds were set here for any values at or beyond the usual limits of such assays
# setupConditions: source organism: Vaccinia virus WR
// reported Kd for each item listed
Just the number in nM, nothing appended.

Before answering, review these 5 worked examples.
QVKDNIISR :: 908
GIEFADNDR :: 7550
KSISKSNAK :: 0.454
TVLPHLCLDY :: 598
VTIKYSNDNR :: 402

Next:
Notebook: `NFITKEIKNR` , Kd read as 1070

---

# measurementTarget: HLA-B*44:02
# protocolText: IEDB peptide-MHC binding, purified MHC/competitive/radioactivity; filed as Kd, often an IC50 or EC50 that approximates it; bounds were set here for any values at or beyond the usual limits of such assays
# setupConditions: source organism: Mammarenavirus brazilense
quantityName: pKd
// pKd: -log10(molar conc.)

Notebook: `SEIQLQRLC` , pKd read as 6.55

---

# measurementTarget: HLA-B*44:02
# protocolText: IEDB peptide-MHC binding, purified MHC/competitive/radioactivity; filed as Kd, often an IC50 or EC50 that approximates it; bounds were set here for any values at or beyond the usual limits of such assays
# setupConditions: source organism: Lymphocytic choriomeningitis virus (strain Armstrong)
quantityName: Kd (nM)
Just the number in nM, nothing appended.

Notebook: `SEISVILQEL` , Kd read as 106

---

# measurementTarget: HLA-A*26:01
# protocolText: IEDB peptide-MHC binding, purified MHC/competitive/radioactivity; filed as Kd, often an IC50 or EC50 that approximates it; bounds were set here for any values at or beyond the usual limits of such assays
# setupConditions: source organism: Triticum aestivum
pKd: −log10 of the molar value.
quantityName: pKd

Notebook: `QFLGQQQPF` , pKd read as ≤ 4.11

---

# measurementTarget: HLA-A*29:02
# protocolText: IEDB peptide-MHC binding, purified MHC/competitive/radioactivity; filed as Kd, often an IC50 or EC50 that approximates it; bounds were set here for any values at or beyond the usual limits of such assays
# setupConditions: source organism: SARS coronavirus Tor2
// reported Kd for each item listed
Just the number in nM, nothing appended.

FSNSGADVLY :: 74.9
FADINGKLY :: 17
CGSVGFNIDY :: 774
FSSRMYCSFY :: 40.2
LCANEYTGNY :: 98.3
PVSIINNAVY :: 101
FMGRIRSVY :: 1.7
TNSVIIMAY :: 84.5

Notebook: `TVAYFNMVY` , Kd read as 3.81

Notebook: `LDEWSVATFY` , Kd read as 95.2

Notebook: `HTSSMRGVYY` , Kd read as 17.8

Notebook: `FVSLAIDAY` , Kd read as 21.6
